Test system: Escherichia coli
Assay: Inhibition of bocillin FL binding to Escherichia coli MM 294 PBP by whole-cell assay
Activity calls are given as the source filed them. The rule behind the calls is not given here.
attribute measured: inhibition

Consider the worked cases shown below.
Please look at O=c1c(CCO)c[nH]c2ccccc12 and tell me its recorded inhibition on Escherichia coli.
inactive

Please look at O=C(O)c1cc(=O)c2ccccc2[nH]1 [TRANSTORINE] and tell me its recorded inhibition on Escherichia coli.
inactive

Please look at O=c1cc(CCO)[nH]c2ccccc12 and tell me its recorded inhibition on Escherichia coli.
inactive

Please look at O=c1cc(CCCO)[nH]c2ccccc12 and tell me its recorded inhibition on Escherichia coli.
inactive

Others:
Please look at O=c1cc[nH]c2cc(O)ccc12 and tell me its recorded inhibition on Escherichia coli.
inactive

Please look at Oc1cccc2nccc(O)c12 and tell me its recorded inhibition on Escherichia coli.
inactive

Please look at O=c1cc(CO)[nH]c2ccccc12 and tell me its recorded inhibition on Escherichia coli.
inactive

Please look at O=C(O)Cc1c[nH]c2ccccc2c1=O and tell me its recorded inhibition on Escherichia coli.
inactive

----------
Test system: Escherichia coli
Test: Inhibition of bocillin FL binding to PBP 3 in Escherichia coli MM 294 membrane preparation at 1 mM by gel electrophoresis
Assay type: cell membranes
Active and inactive are the calls of the source. The calls are words filed in the database; no cut-off is given here.
attribute measured: inhibition

Let me know recorded inhibition for Oc1cccc2nccc(O)c12 , thanks.
inactive

Let me know recorded inhibition for O=c1cc[nH]c2cc(O)ccc12 , thanks.
inactive

Let me know recorded inhibition for Oc1ccnc2ccccc12 , thanks.
inactive

Let me know recorded inhibition for O=C(O)Cc1c[nH]c2ccccc2c1=O , thanks.
inactive

----------
System: Bacillus subtilis
Experiment: Inhibition of bocillin FL binding to Bacillus subtilis PBP2 at 1 mM by gel electrophoresis
The source made the active and inactive calls. The rule behind the calls is not given here.
attribute measured: inhibition

Consider the worked cases shown below.
Let me know recorded inhibition for O=c1c(CCO)c[nH]c2ccccc12 , thanks.
Active

Let me know recorded inhibition for O=c1cc(CCO)[nH]c2ccccc12 , thanks.
Active

Let me know recorded inhibition for O=c1cc(CCCO)[nH]c2ccccc12 , thanks.
Active

Let me know recorded inhibition for O=c1cc[nH]c2cc(O)ccc12 , thanks.
Active

Let me know recorded inhibition for O=C(O)Cc1c[nH]c2ccccc2c1=O , thanks.
Active

Let me know recorded inhibition for O=C(O)c1cc(=O)c2ccccc2[nH]1 [TRANSTORINE] , thanks.
Active

Let me know recorded inhibition for Oc1cccc2nccc(O)c12 , thanks.
Active

--- query ---
Let me know recorded inhibition for O=c1cc(CO)[nH]c2ccccc12 , thanks.
Active

----------
Test system: Bacillus subtilis
Experiment: Inhibition of bocillin FL binding to Bacillus subtilis PBP1 at 1 mM by gel electrophoresis
Activity calls are given as the source filed them. The calls are words filed in the database; no cut-off is given here.
attribute measured: inhibition

Consider the worked cases shown below.
Let me know recorded inhibition for O=C(O)c1cc(=O)c2ccccc2[nH]1 [TRANSTORINE] , thanks.
Active

Let me know recorded inhibition for O=C(O)Cc1c[nH]c2ccccc2c1=O , thanks.
Active

Let me know recorded inhibition for O=c1cc(CO)[nH]c2ccccc12 , thanks.
Active

Let me know recorded inhibition for Oc1cccc2nccc(O)c12 , thanks.
Active

Let me know recorded inhibition for O=c1c(CCO)c[nH]c2ccccc12 , thanks.
Active

Others:
Let me know recorded inhibition for O=c1cc[nH]c2cc(O)ccc12 , thanks.
Active

Let me know recorded inhibition for O=c1cc(CCCO)[nH]c2ccccc12 , thanks.
Active

Let me know recorded inhibition for O=c1cc(CCO)[nH]c2ccccc12 , thanks.
Active

----------
Assay: Inhibition of bocillin FL binding to PBP 3 in Escherichia coli MM 294 membrane preparation by gel electrophoresis
Type: cell membranes
Measured Ki by item
Numeric only. Scale: µM

Let me know recorded Ki for O=c1cc(CCCO)[nH]c2ccccc12 , thanks.
120

Let me know recorded Ki for O=c1cc(CCO)[nH]c2ccccc12 , thanks.
120

Let me know recorded Ki for O=c1c(CCO)c[nH]c2ccccc12 , thanks.
70

Let me know recorded Ki for O=C(O)c1cc(=O)c2ccccc2[nH]1 [TRANSTORINE] , thanks.
950

Others:
Let me know recorded Ki for O=c1cc(CO)[nH]c2ccccc12 , thanks.
27

----------
Assay: Inhibition of bocillin FL binding to PBP 1a/1b in Escherichia coli MM 294 membrane preparation by gel electrophoresis
Assay type: cell membranes
Measured Ki by item
Numeric only. Scale: µM

Consider the worked cases shown below.
Let me know recorded Ki for O=c1cc(CCCO)[nH]c2ccccc12 , thanks.
49

Let me know recorded Ki for O=c1c(CCO)c[nH]c2ccccc12 , thanks.
38

Let me know recorded Ki for O=c1cc[nH]c2cc(O)ccc12 , thanks.
510

Let me know recorded Ki for O=C(O)c1cc(=O)c2ccccc2[nH]1 [TRANSTORINE] , thanks.
470

Let me know recorded Ki for O=c1cc(CCO)[nH]c2ccccc12 , thanks.
37

Let me know recorded Ki for O=c1cc(CO)[nH]c2ccccc12 , thanks.
27

--- query ---
Let me know recorded Ki for O=C(O)Cc1c[nH]c2ccccc2c1=O , thanks.
300
